System: Bacillus subtilis NRRL B558
Assay Summary: Antibacterial activity (minimum inhibitory concentration), tube dilution method
Format: cell-based
Assay Context: Bacillus subtilis, NRRLB558; tube dilution method, brain heart infusion broth (pH 7.5); read-out: minimum inhibitory concentration, Bacillus subtilis NRRL B558
For each of the compounds below, state its MIC.

Item CCC1OC(=O)CC(O)C(C)C(OC2OC(C)C(OC3CC(C)(O)C(O)C(C)O3)C(N(C)C)C2O)C(CC=O)CC(C)C(=O)C=CC(C)=CC1COC(=O)C(O)c1ccccc1 (stereo not drawn) [R1=H, R3=H, AR4=drawing 73] with Bacillus subtilis NRRL B558 - MIC?
< 0.2 µg/mL

Request - read-out MIC | tested on Bacillus subtilis NRRL B558 | compound CCC1OC(=O)CC(O)C(C)C(OC2OC(C)C(OC3CC(C)(O)C(O)C(C)O3)C(N(C)C)C2O)C(CC=O)CC(C)C(=O)C=CC(C)=CC1CI (stereo not drawn) [R1=H, R3=H, AR4=I, 23-Deoxy-23-iodo-YO-9010]
< 0.2 µg/mL

MIC of CCC1OC(=O)CC(O)C(C)C(OC2OC(C)C(OC3CC(C)(O)C(O)C(C)O3)C(N(C)C)C2O)C(CC=O)CC(C)C(=O)C=CC(C)=CC1CSc1nnnn1C (stereo not drawn) [R1=H, R3=H, AR4=drawing 81] on Bacillus subtilis NRRL B558?
< 0.2 µg/mL

Give MIC (Bacillus subtilis NRRL B558) of the following compound: CCC1OC(=O)CC(O)C(C)C(OC2OC(C)C(OC3CC(C)(O)C(O)C(C)O3)C(N(C)C)C2O)C(CC=O)CC(C)C(=O)C=CC(C)=CC1CBr (stereo not drawn) [R1=H, R3=H, AR4=Br, 23-Deoxy-23-bromo-YO-9010]
< 0.2 µg/mL

Fill in the recorded MIC for this compound, with Bacillus subtilis NRRL B558 as test system: CCC1OC(=O)CC(O)C(C)C(OC2OC(C)C(OC3CC(C)(O)C(OC(=O)CSc4ccccc4)C(C)O3)C(N(C)C)C2O)C(CC=O)CC(C)C(=O)C=CC(C)=CC1CO (stereo not drawn) [R1=H, R3=drawing 67, AR4=OH]
< 0.2 µg/mL

State its MIC on Bacillus subtilis NRRL B558: CCC1OC(=O)CC(O)C(C)C(OC2OC(C)C(OC3CC(C)(O)C(O)C(C)O3)C(N(C)C)C2O)C(CC=O)CC(C)C(=O)C=CC(C)=CC1COC(C)=O (stereo not drawn) [R1=H, R3=H, AR4=OCOCH3]
0.4 µg/mL

* * *

System: Bacillus subtilis NRRL B558
Assay Summary: Antibacterial activity (minimum inhibitory concentration), tube dilution method
Type: cell-based
Assay Context: Bacillus subtilis, NRRLB558; tube dilution method, brain heart infusion broth (pH 7.5); read-out: minimum inhibitory concentration, Bacillus subtilis NRRL B558
Property Measured: MIC (µg/mL)
// units = µg/mL; emit number, no label

Tell me the measured MIC of CCC1OC(=O)CC(O)C(C)C(OC2OC(C)C(OC3CC(C)(O)C(OC(=O)CSc4ccccc4)C(C)O3)C(N(C)C)C2O)C(CC=O)CC(C)C(=O)C=CC(C)=CC1COC(C)=O (stereo not drawn) [R1=H, R3=drawing 76, AR4=OCOCH3] , please.
0.2

Entry CCC1OC(=O)CC(O)C(C)C(OC2OC(C)C(OC3CC(C)(O)C(O)C(C)O3)C(N(C)C)C2O)C(CC=O)CC(C)C(=O)C=CC(C)=CC1CSC (stereo not drawn) : reported MIC = ?
0.8

Reference for the values: patent US4463171A
